Consider the following binders; for each one, report its IC50.
# systemUnderTest: T1, human RANK-L (human, UniProt O14788 140-317, limits assumed)
# T1 construct: Soluble protein, used coated, biotinylated or labelled in ELISA, AlphaScreen, FMAT and Biacore; also called hRANK-L; soluble human RANK-L
# T1 sequence (looked up): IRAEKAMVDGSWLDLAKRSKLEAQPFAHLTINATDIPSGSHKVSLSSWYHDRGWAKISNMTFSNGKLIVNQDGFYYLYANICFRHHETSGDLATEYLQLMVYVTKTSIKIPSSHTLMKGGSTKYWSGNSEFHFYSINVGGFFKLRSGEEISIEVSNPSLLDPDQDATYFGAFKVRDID
# testProtocol: AlphaScreen, biotin-hRANK-L / RANK-huFc beads
Response body: numeric value in pM, unit text excluded.

Task item: Param item = RANKL13hum1 (VHH) VHH: EVQLVESGGGLVQPGGSLRLSCAASGFTFRSYPMGWFRQAPGKGREFVASITGSGGSTYYADSVKGRFTISRDNAKNTLYLQMNSLRPEDTAVYSCAAYIRPDTYLSRDYRKYDYWGQGTLVTVSS ; retrieve measured IC50.
Reply: 123

Task item: # query: IC50 of entry RANKL13hum5 (VHH) VHH: EVQLVESGGGLVQPGGSLRLSCAASGFTFSSYPMGWFRQAPGKGREFVSSITGSGGSTYYADSVKGRFTISRDNAKNTLYLQMNSLRPEDTAVYYCAAYIRPDTYLSRDYRKYDYWGQGTLVTVSS
Reply: 91

Task item: I have this binder here, RANKL18 (VHH, not shown: small tags and cut ends) VHH: EVQLVESGGGLVQAGGSLRLSCAASGRTFSRSAMGWFRQAPGKEREFVGFITGSGGTTYYGESVKGRFTISRDNAQNPVYLQMNSLKPEDTAVYYCGVYRRTYISSTYSESSEYDYWGQGTQVTVSS , and I need its recorded IC50.
Reply: 292

Task item: Can you look up the measured IC50 of RANKL18hum6 (VHH) VHH: EVQLVESGGGLVQPGGSLRLSCAASGRTFSRSAMGWFRQAPGKGREFVGFITGSGGTTYYADSVKGRFTISRDNAQNPVYLQMNSLRPEDTAVYYCAVYRRTYISSTYSESSEYDYWGQGTLVTVSS for me?
Reply: 138
